- Study Target: T1, human GIP receptor (human, UniProt P48546 22-466)
- T1 sequence (looked up): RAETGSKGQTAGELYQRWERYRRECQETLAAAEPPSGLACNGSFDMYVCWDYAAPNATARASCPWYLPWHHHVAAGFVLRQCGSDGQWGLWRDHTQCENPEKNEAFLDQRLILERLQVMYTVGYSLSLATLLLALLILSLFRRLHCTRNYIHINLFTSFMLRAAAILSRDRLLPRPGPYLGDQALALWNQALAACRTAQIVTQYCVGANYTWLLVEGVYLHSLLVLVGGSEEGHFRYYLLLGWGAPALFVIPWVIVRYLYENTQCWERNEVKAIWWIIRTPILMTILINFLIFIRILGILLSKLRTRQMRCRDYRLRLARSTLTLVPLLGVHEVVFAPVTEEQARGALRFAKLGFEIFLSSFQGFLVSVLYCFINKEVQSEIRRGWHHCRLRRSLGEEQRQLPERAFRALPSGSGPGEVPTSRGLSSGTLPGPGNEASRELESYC
- Assay Name: cell-based or functional assay
Bridges are numbered along the chain shown (N, C = ends). Where no end group is shown, it is not given here. [ ]: non-standard residue; d: D form. Aib = CC(C)(N)C(=O)O
Outcome Measure: In vitro activity relative to native peptide (%) vs. GIP
Could you give me the number in %? Just the number is fine.

Item: H[Aib]QGTFTSDYSIAMDEIHQKDFVNWLLNTC (bridge 16-20) [triple agonist of SEQ ID NO: 57] | In vitro activity relative to native peptide (%) vs. GIP: 0.3

Item: Y[Aib]QGTFTSDYSKYLDEKRAKEFVQWLLDHHCSSGQPPPS (bridge 16-20) [triple agonist of SEQ ID NO: 43] | In vitro activity relative to native peptide (%) vs. GIP: 3.7

Item: Y[Aib]QGTFTSDYSKYLDEKAAKEFVQWLLDHHPSSGQPPPSC (bridge 16-20) [triple agonist of SEQ ID NO: 75] | In vitro activity relative to native peptide (%) vs. GIP: 18

Item: H[Aib]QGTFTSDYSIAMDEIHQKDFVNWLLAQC (bridge 16-20) [triple agonist of SEQ ID NO: 55] | In vitro activity relative to native peptide (%) vs. GIP: 2.4

Item: Y[Aib]QGTFTSDYSKALDEKAAKEFVNWLLDHHPSSGQPPPSC (bridge 16-20) [triple agonist of SEQ ID NO: 98] | In vitro activity relative to native peptide (%) vs. GIP: 47.1

Item: H[Aib]QGTFTSDYSKYLDEKAQKEFVQWLLDTC (bridge 16-20) [triple agonist of SEQ ID NO: 30] | In vitro activity relative to native peptide (%) vs. GIP: 0.8

Item: H[Aib]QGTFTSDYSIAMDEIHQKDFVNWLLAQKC (bridge 16-20) [triple agonist of SEQ ID NO: 33] | In vitro activity relative to native peptide (%) vs. GIP: 10.4
